Molecular target: GST-tagged KRAS-G12D (2-169) (Homo sapiens, UniProt P01116, G12D)
Sequence (P01116 2-169 isoform P01116-2 G12D): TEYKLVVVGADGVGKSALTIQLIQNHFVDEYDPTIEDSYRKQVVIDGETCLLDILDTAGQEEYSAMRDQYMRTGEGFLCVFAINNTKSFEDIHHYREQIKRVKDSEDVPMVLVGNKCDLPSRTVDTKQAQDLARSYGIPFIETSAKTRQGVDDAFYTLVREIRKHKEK
Test: Nucleotide exchange assay (NEA), SOS-mediated, HTRF, KRAS G12D
Assay type: biochemical
Settings: Table 4; IC50 extracted at 30 min; 20 nM SOScat; read-out: NEA G12D IC50
Text: This activity is tightly regulated by GTPase activating proteins (GAPs) and guanine nucleotide exchange factors (GEFs). […] Homogenous time resolved fluorescence (HTRF) was used to detect SOS-mediated binding of a fluorescent GTP analog, GTP-DY-647P1 (Jena Biosciences NU-820-647P1) to GST-tagged KRAS-G12D (2-169) or to GST-tagged KRAS-G12V (2-169, Reaction Biology, MSC-11-540). […]

[
  {
    "compound": "CC(c1ccn[nH]1)N(C)c1nc(OC[C@@]23CCCN2C[C@H](F)C3)nc(N2CC3(CCc4sc(N)c(C#N)c43)C2)n1 (stereo partly drawn) [Compound 129]",
    "IC50": "100 to 1000 nM"
  },
  {
    "compound": "CCN(c1nc(OCC2(CN3C4CCC3COC4)CC2)nc(N2CC3(C2)SCc2sc(N)c(C#N)c23)n1)[C@H](C)c1cccnc1N [Compound 203]",
    "IC50": "< 10 nM"
  },
  {
    "compound": "N#Cc1c(N)sc2c1C1(CC2)CN(c2nc(OC[C@@]34CCCN3C[C@H](F)C4)nc(N3CCCCC(O)C3)n2)C1 (stereo partly drawn) [Compound 50]",
    "IC50": "10 to 100 nM"
  },
  {
    "compound": "COC[C@@H]1CC[C@@H](COc2nc(N3CC4(C3)SCc3sc(N)c(C#N)c34)nc(N(CC(F)F)C(C)c3cccnc3N)n2)N1 (mixture of isomers) [Compound 211]",
    "IC50": "< 10 nM"
  },
  {
    "compound": "CCN(c1nc(OC[C@@]23CCCN2C[C@H](F)C3)nc(N2CC3(C2)c2c(sc(N)c2C#N)CN3CC(F)F)n1)[C@H](C)c1cccnc1N [Compound 227]",
    "IC50": "100 to 1000 nM"
  },
  {
    "compound": "CC(c1cccnc1O)N(C)c1nc(OC[C@@]23CCCN2C[C@H](F)C3)nc(N2CC3(CCc4sc(N)c(C#N)c43)C2)n1 (stereo partly drawn) [Compound 138]",
    "IC50": "100 to 1000 nM"
  },
  {
    "compound": "N#Cc1c(N)sc2c1C1(CC2)CN(c2nc(OC[C@@]34CCCN3C[C@H](F)C4)nc(N3CCC[C@@H](O)[C@@H](O)C3)n2)C1 [Compound 81]",
    "IC50": "< 10 nM"
  },
  {
    "compound": "N#CCN(CC(F)F)c1nc(OC[C@@]23CCCN2C[C@H](F)C3)nc(N2CC3(C2)SCc2sc(N)c(C#N)c23)n1 [Compound 242]",
    "IC50": "< 10 nM"
  },
  {
    "compound": "CC(=O)C(O)(O)C(=O)N1[C@@H]2CC[C@H]1CN(c1nc(OC[C@@]34CCCN3C[C@H](F)C4)nc(N3CC4(C3)SCc3sc(N)c(C#N)c34)n1)C2 [Compound 159]",
    "IC50": "10 to 100 nM"
  },
  {
    "compound": "CC(c1n[nH]cc1N)N(C)c1nc(OC[C@@]23CCCN2C[C@H](F)C3)nc(N2CC3(C2)SCc2sc(N)c(C#N)c23)n1 (stereo partly drawn) [Compound 192]",
    "IC50": "100 to 1000 nM"
  },
  {
    "compound": "CCN(c1nc(OC[C@@H]2C[C@@H](F)CN2)nc(N2CC3(C2)SCc2sc(N)c(C#N)c23)n1)[C@H](C)c1cccnc1N [Compound 209]",
    "IC50": "< 10 nM"
  },
  {
    "compound": "CN(c1nc(OC[C@@]23CCCN2C[C@H](F)C3)nc(N2CC3(CCc4sc(N)c(C#N)c43)C2)n1)[C@@H]1COC[C@H]1O (racemic) [Compound 90]",
    "IC50": "100 to 1000 nM"
  },
  {
    "compound": "C[C@H](c1cccnc1N)N(C)c1nc(OC[C@@]23CCCN2C[C@H](F)C3)nc(N2CCC3(CCc4sc(N)c(C#N)c43)C2)n1 (stereo partly drawn) [Compound 195]",
    "IC50": "10 to 100 nM"
  },
  {
    "compound": "CC(C1=NN=CC1Cl)N(C)c1nc(OC[C@@]23CCCN2C[C@H](F)C3)nc(N2CC3(CCc4sc(N)c(C#N)c43)C2)n1 (stereo partly drawn) [Compound 127]",
    "IC50": "1000 to 20000 nM"
  },
  {
    "compound": "N#Cc1c(N)sc2c1C1(CC2)CN(c2nc(OC[C@@]34CCCN3C[C@H](F)C4)nc(N3CCCC4(CC(=O)N4)C3)n2)C1 (stereo partly drawn) [Compound 130]",
    "IC50": "< 10 nM"
  },
  {
    "compound": "CCN(c1nc(OC[C@@]23CCCN2C[C@H](F)C3)nc(N2CC3(CCc4sc(N)c(C#N)c43)C2)n1)[C@H](C)c1cccnc1N [Compound 173]",
    "IC50": "< 10 nM"
  },
  {
    "compound": "N#Cc1c(N)sc2c1C1(CC2)CN(c2nc(OC[C@@]34CCCN3C[C@H](F)C4)nc(N3CCCCC(C#N)C3)n2)C1 (stereo partly drawn) [Compound 74]",
    "IC50": "10 to 100 nM"
  },
  {
    "compound": "N#Cc1c(N)sc2c1C1(CC2)CN(c2nc(OC[C@@]34CCCN3C[C@H](F)C4)nc(N3CCOCC(C#N)C3)n2)C1 (single isomer, unassigned) [Compound 91A]",
    "IC50": "< 10 nM"
  },
  {
    "compound": "N#CCC1(O)CCCN(c2nc(OCC3(CN4CCOCC4)CC3)nc(N3CC4(CCc5sc(N)c(C#N)c54)C3)n2)C1 (stereo not drawn) [Compound 101]",
    "IC50": "10 to 100 nM"
  },
  {
    "compound": "CCN(c1nc(OC[C@@H]2CC(F)(F)CN2C)nc(N2CC3(C2)SCc2sc(N)c(C#N)c23)n1)[C@H](C)c1cccnc1N [Compound 176]",
    "IC50": "100 to 1000 nM"
  },
  {
    "compound": "N#Cc1c(N)sc2c1C1(CN(c3nc(OC[C@@]45CCCN4C[C@H](F)C5)nc(N4CCOCC(C#N)C4)n3)C1)SC2 (stereo partly drawn) [Compound 146]",
    "IC50": "10 to 100 nM"
  },
  {
    "compound": "CC1(C#N)CCCN(c2nc(OC[C@@]34CCCN3C[C@H](F)C4)nc(N3CC4(CCc5sc(N)c(C#N)c54)C3)n2)C1 (stereo partly drawn) [Compound 19]",
    "IC50": "10 to 100 nM"
  },
  {
    "compound": "C[C@]1(O)CN(c2nc(OC[C@@]34CCCN3C[C@H](F)C4)nc(N3CC4(CCc5sc(N)c(C#N)c54)C3)n2)CC[C@H]1O [Compound 21]",
    "IC50": "10 to 100 nM"
  },
  {
    "compound": "CCN(c1nc(OCC(C)N(C)C)nc(N2CC3(C2)SCc2sc(N)c(C#N)c23)n1)[C@H](C)c1cccnc1N (stereo partly drawn) [Compound 177]",
    "IC50": "10 to 100 nM"
  }
]
